testedTarget: T1, CD25 endogenously expressed on SUDHL-1 human lymphoma cell line and induced human Treg (iTreg) (human, UniProt P01589 22-272)
T1 sequence (looked up): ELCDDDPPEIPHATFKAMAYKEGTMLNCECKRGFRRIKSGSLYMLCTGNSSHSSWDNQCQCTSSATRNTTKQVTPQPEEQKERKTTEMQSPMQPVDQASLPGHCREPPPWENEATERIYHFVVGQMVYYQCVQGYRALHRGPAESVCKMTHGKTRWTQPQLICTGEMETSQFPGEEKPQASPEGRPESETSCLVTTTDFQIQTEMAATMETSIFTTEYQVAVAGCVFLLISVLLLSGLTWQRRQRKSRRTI
experimentalProtocol: cell-based or functional assay
measurementType: EC50, iTreg/NFAT CD16 ADCC reporter assay (µg/mL)
Give your result in µg/mL as a bare value.

[ask] Name the reported EC50, iTreg/NFAT CD16 ADCC reporter assay value associated with the binder IBIO-101-plant-WT (SD-889825-PW-A; IBIO-101, wild-type plant) (antibody, human IgG1, kappa, V domains shown, Same antibody made in wild-type Nicotiana benthamiana plants; also called RTX-003; hD11) VH: QVQLVQSGAEVKKPGASLKISCKGSGYTFTDYAMHWVRQAPGQGLEWIGVISTYSGDAIYAQKFQGRATMTVDTSTSTAYLELSSLRSEDTAVYYCARGVTFDYWGQGTTVTVSS VL: DIQMTQSPSSLSASVGDRVTITCRASQDISNYLEWYQQKPGKAPKLLVYNAKTLAEGVPSRFSGSGSGTDFTLTISSLQPEDFGTYYCQHHYDTPYTFGQGTKLEIKR
[reply] 0.0303

[ask] Name the reported EC50, iTreg/NFAT CD16 ADCC reporter assay value associated with the binder IBIO-101-CHO-WT (SD-889825-CW-A; IBIO-101, wild-type CHO cells) (antibody, human IgG1, kappa, V domains shown, The signal peptide is marked only by bold print (lost here); also called RTX-003; hD11) VH: QVQLVQSGAEVKKPGASLKISCKGSGYTFTDYAMHWVRQAPGQGLEWIGVISTYSGDAIYAQKFQGRATMTVDTSTSTAYLELSSLRSEDTAVYYCARGVTFDYWGQGTTVTVSS VL: DIQMTQSPSSLSASVGDRVTITCRASQDISNYLEWYQQKPGKAPKLLVYNAKTLAEGVPSRFSGSGSGTDFTLTISSLQPEDFGTYYCQHHYDTPYTFGQGTKLEIKR
[reply] 0.0538

[ask] Name the reported EC50, iTreg/NFAT CD16 ADCC reporter assay value associated with the binder IBIO-101-plant-afuc (SD-889825-PC-A; IBIO-101, c-105 plant Afucosylated) (antibody, human IgG1, kappa, V domains shown, Same antibody made in C105 deltaXT/FT N. benthamiana plants, glycans without fucose and xylose; also called RTX-003; hD11) VH: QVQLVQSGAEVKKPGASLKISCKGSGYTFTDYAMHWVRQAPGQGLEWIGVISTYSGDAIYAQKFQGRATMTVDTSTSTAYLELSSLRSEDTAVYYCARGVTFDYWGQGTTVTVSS VL: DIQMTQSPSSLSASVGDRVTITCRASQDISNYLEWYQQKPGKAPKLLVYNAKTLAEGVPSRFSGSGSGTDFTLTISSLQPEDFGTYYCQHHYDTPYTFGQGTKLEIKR
[reply] 0.00714
